Biological target: T1, HLA-A2/E6 (29-38) tetramer (human; HPV 16)
T1 construct: also called E6(29-38) peptide-MHC tetramer; E6(29-38)-loaded tetramer
Test: tetramer flow cytometry; transfected 1:1 CD4+ and CD4+/CD8+ Jurkat-derived cells;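 further: cell mixtures transiently transfected with TCR-encoding plasmids, analysed by flow cytometry 48 h later after HLA-A*02:01 E6 tetramer staining combined with anti-CD8 antibody co-staining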
Measured attribute: % cells in E6 tet+/CD8+ quadrant

INSERT INTO assay_data (binder, result) VALUES
  ('TCR 29 (codon optimized, cysteine modified version) (TCR, V domains shown) V domain 1: AQKITQTQPGMFVQEKEAVTLDCTYDTSDQSYGLFWYKQPSSGEMIFLIYQGSYDEQNATEGRYSLNFQKARKSANLVISASQLGDSAMYFCAMRLNTGTASKLTFGTGTRLQVTL V domain 2: DGGITQSPKYLFRKEGQNVTLSCEQNLNHDAMYWYRQDPGQGLRLIYYSQIVNDFQKGDIAEGYSVSREKKESFPLTVTSAQKNPTAFYLCASSPWGRATNEQFFGPGTRLTVLE', '35.6%'),
  ('TCR 15 (codon optimized, cysteine modified version) (TCR, V domains shown) V domain 1: AQKITQTQPGMFVQEKEAVTLDCTYDTSDQSYGLFWYKQPSSGEMIFLIYQGSYDEQNATEGRYSLNFQKARKSANLVISASQLGDSAMYFCAMKPGGYNKLIFGAGTRLAVHP V domain 2: DAGVIQSPRHEVTEMGQEVTLRCKPISGHNSLFWYRQTMMRGLELLIYFNNNVPIDDSGMPEDRFSAKMPNASFSTLKIQPSEPRDSAVYFCASSLVGRSRTEQYFGPGTRLTVTE', '21.4%'),
  ('TCR 24 (codon optimized, cysteine modified version) (TCR, V domains shown) V domain 1: AQKITQTQPGMFVQEKEAVTLDCTYDTSDQSYGLFWYKQPSSGEMIFLIYQGSYDEQNATEGRYSLNFQKARKSANLVISASQLGDSAMYFCAMREGRGDSWGKLQFGAGTQVVVTP V domain 2: DVKVTQSSRYLVKRTGEKVFLECVQDMDHENMFWYRQDPGLGLRLIYFSYDVKMKEKGDIPEGYSVSREKKERFSLILESASTNQTSMYLCASSPFGRGSYEQYFGPGTRLTVTE', '55%'),
  ('TCR 25 (codon optimized, cysteine modified version) (TCR, V domains shown) V domain 1: AQKITQTQPGMFVQEKEAVTLDCTYDTSDQSYGLFWYKQPSSGEMIFLIYQGSYDEQNATEGRYSLNFQKARKSANLVISASQLGDSAMYFCAMREGSLTGGGNKLTFGTGTQLKVEL V domain 2: DVKVTQSSRYLVKRTGEKVFLECVQDMDHENMFWYRQDPGLGLRLIYFSYDVKMKEKGDIPEGYSVSREKKERFSLILESASTNQTSMYLCASSLWGQSNQPQHFGDGTRLSILE', '34%');
